Below, each entry is listed alongside its reported IC50.
# ASSAY_TARGET: HLA-A*02:01
# EXPERIMENT: IEDB peptide-MHC binding, purified MHC/competitive/radioactivity; bounds were set here for any values at or beyond the usual limits of such assays
# CONDITIONS_USED: source organism: Trypanosoma cruzi
Please give a number only; it is taken to be in µM.

// below: answered sequences
[[record]]
polymer_sequence = "WIIKNSWTA"
result = 0.186

[[record]]
polymer_sequence = "FLGGGGAGI"
result = 3.58

[[record]]
polymer_sequence = "YVNGVVVATV"
result = 0.466

[[record]]
polymer_sequence = "FLARLHAAA"
result = 0.048

[[record]]
polymer_sequence = "VMMSCSSEA"
result = 0.055

[[record]]
polymer_sequence = "LTNLSEQMLV"
result = 3.19

[[record]]
polymer_sequence = "QMDYSNGLFV"
result = 0.061

[[record]]
polymer_sequence = "RLLSPTTIV"
result = 0.29


Data request: What value of IC50 has been recorded for this entry: "SVFRENLFL"
Data returned: 0.059

Data request: // same read-out, input: "LLLGLWGTAA"
Data returned: 0.241

Data request: // same read-out, input: "CLVPAATASL"
Data returned: 2.54

These data points were gathered from the Immune Epitope Database (IEDB).
